The origin of these recorded values is paper PMC6402191.

assay: Clinical baricitinib-probenecid DDI study in healthy subjects; assay type: in vivo, human; settings: human, plasma, oral, 4 mg

{"compound_string": "CCS(=O)(=O)N1CC(CC#N)(n2cc(-c3ncnc4[nH]ccc34)cn2)C1", "Cmax": "36.2 ng/mL"}

---

experiment: Human mass balance study of baricitinib; assay type: in vivo; conditions: human, blood and plasma, oral

{"compound": "CCS(=O)(=O)N1CC(CC#N)(n2cc(-c3ncnc4[nH]ccc34)cn2)C1 [Baricitinib]", "blood plasma ratio": 1.26}

---

experiment: Plasma protein binding; format: in vitro ADME; details: human

{"compound": "CCS(=O)(=O)N1CC(CC#N)(n2cc(-c3ncnc4[nH]ccc34)cn2)C1 [Baricitinib]", "fraction unbound": 0.5}
